- procedureText: Conversion (release) of prodrug salts to parent compound in HEPES buffer pH 7.4
- Assay type: in vitro ADME
- studyConditions: hepes buffer, pH 7.4, HEPES pH 7.4, 37 °C, 12 h; read-out: Release rate (conversion to Compound 1)
propertyName: degraded at 12 h (%)
Just the number please, in %, no unit attached.

Solved entries (count: 3):
{"columns": ["compoundStructureString", "degraded at 12 h [%]"],
 "data": [
  ["C[C@@]12CC[C@@H]3[C@H](OC(=O)[C@H]3CN3CCC(N4CCOCC4)CC3)[C@@H]3[C@]1(CC[C@@]3(C)O)C2", 52.4],
  ["CCN1CCN(C[C@@H]2C(=O)O[C@H]3[C@H]2CC[C@@]2(C)C[C@]24CC[C@@](C)(O)[C@H]34)CC1", 54.8],
  ["C[C@@]12CC[C@@H]3[C@H](OC(=O)[C@H]3CN3CCC4(CCCC4)CC3)[C@@H]3[C@]1(CC[C@@]3(C)O)C2", 54.4]
]}

Request: Name the reported degraded at 12 h value associated with the molecule C[C@@]12CC[C@@H]3[C@H](OC(=O)[C@H]3CN3CCCCCCC3)[C@@H]3[C@]1(CC[C@@]3(C)O)C2
Response: 50.7

* * *

- procedureText: Conversion (release) of prodrug salts to parent compound in mouse plasma
- Type: in vitro ADME
- studyConditions: 37 °C, 2 h, 120 min
propertyName: Release rate (conversion to Compound 1) (%)
Note: unit % is implicit; provide only the numeric part.

Some solved entries appear below for comparison.
{"columns": ["compound", "propertyName", "recordedNumber"],
 "data": [
  ["CN(C)C[C@@H]1C(=O)O[C@H]2[C@H]1CC[C@@]1(C)C[C@]13CC[C@@](C)(O)[C@H]23 [Compound 21]", "Release rate (conversion to Compound 1)", 10.7],
  ["CN(C)C[C@@H]1C(=O)O[C@H]2[C@H]1CC[C@@]1(C)C[C@]13CC[C@@](C)(O)[C@H]23 [Compound 42]", "Release rate (conversion to Compound 1)", 14.2],
  ["CN(C)C[C@@H]1C(=O)O[C@H]2[C@H]1CC[C@@]1(C)C[C@]13CC[C@@](C)(O)[C@H]23 [Compound 40]", "Release rate (conversion to Compound 1)", 14.2],
  ["CN(C)C[C@@H]1C(=O)O[C@H]2[C@H]1CC[C@@]1(C)C[C@]13CC[C@@](C)(O)[C@H]23 [Compound 41]", "Release rate (conversion to Compound 1)", 17.2]
]}

Lab note: next compound to report on.
Request: Recorded Release rate (conversion to Compound 1) of CN(C)C[C@@H]1C(=O)O[C@H]2[C@H]1CC[C@@]1(C)C[C@]13CC[C@@](C)(O)[C@H]23 [Compound 20] , please.
Response: 12.9

* * *

Listed here are compounds together with their documented metabolised at 12 h.
- procedureText: Conversion (release) of prodrug salts to parent compound in mouse plasma
- Format: in vitro ADME
- studyConditions: mouse, plasma, 37 °C, 12 h, read-out: Release rate (conversion to Compound 1)
Reply with just the number (in %).

Request: I would be grateful if you could share the reported metabolised at 12 h for C[C@@]12CC[C@@H]3[C@H](OC(=O)[C@H]3CN3CCC4(CC3)CC4)[C@@H]3[C@]1(CC[C@@]3(C)O)C2 .
Response: 67.8

Request: // lookup metabolised at 12 h for CCOC(=O)[C@@H]1CCCN1C[C@@H]1C(=O)O[C@H]2[C@H]1CC[C@@]1(C)C[C@]13CC[C@@](C)(O)[C@H]23
Response: 52.8

Request: Could you share which metabolised at 12 h value was measured for CCCN(CCC)C[C@@H]1C(=O)O[C@H]2[C@H]1CC[C@@]1(C)C[C@]13CC[C@@](C)(O)[C@H]23 ?
Response: 49

Request: What does the data say about its metabolised at 12 h? Entry: CCCCN(CCCC)C[C@@H]1C(=O)O[C@H]2[C@H]1CC[C@@]1(C)C[C@]13CC[C@@](C)(O)[C@H]23
Response: 48.8

Request: Quick check: metabolised at 12 h of C[C@@]12CC[C@@H]3[C@H](OC(=O)[C@H]3CN3CCNCC3)[C@@H]3[C@]1(CC[C@@]3(C)O)C2 ?
Response: 65.6
